# Test system: HEK-293T
# method-summary: Multiplex assay against HEK293T
# Type: toxicity, cell-based
# measurement-setup: human, 48 h, 10 µM, compound concentration 10 uM, replicate 2
Classify by measured Total Cell Count: true if it is equal to or exceeds 600, false if it is smaller.

INSERT INTO results (entry_smiles, group) VALUES
  ('CCOc1c2c(c(OCC)c3ncccc13)CN(c1ccc(CS(=O)(=O)NC(=O)Cc3ccccc3OC)cc1C)C2=O', 'true');

Could you verify whether the entry "CN(C)CCCc1cc(C(=O)Nc2ccc(-c3ccncc3)cc2)ccc1O.Cl.Cl" shows Total Cell Count of no less than 600? true

Could you verify whether the entry "CN1CCN(c2nc3cc(C(F)(F)F)ccc3n3cccc23)CC1.O=C(O)/C=C\C(=O)O.O=C(O)/C=C\C(=O)O" shows Total Cell Count of no less than 600? false

Could you verify whether the entry "N#Cc1c(N)nc(SCc2csc(-c3ccc(Cl)cc3)n2)c(C#N)c1-c1ccc(OCCO)cc1" shows Total Cell Count of no less than 600? false

Could you verify whether the entry "Cc1ccc(/C(=C\CN2CCCC2)c2ccccn2)cc1" shows Total Cell Count of no less than 600? true
